Test system: PDE II (cGMP-stimulatable PDE II)
Experiment: Inhibition of the phosphodiesterases in vitro: PDE II
Format: biochemical
Conditions: enzyme from porcine or bovine myocardium; ^3HcAMP substrate plus 10^-6 mol/l non-labelled cGMP, pH 7.5, 30 minutes
List of IC50 values.

COMPOUND: CCCCCCC(CC)n1cnc2c(=O)[nH]c(-c3cc(S(=O)(=O)N4CCOCC4)ccc3OCCC)nc21 (stereo not drawn) [Example 57]
UNIT: nM
IC50: 300
--
COMPOUND: CCCOc1ccccc1-c1nc2c(ncn2C(CCc2ccccc2)C(C)O)c(=O)[nH]1 (stereo not drawn) [Example 4]
UNIT: nM
IC50: 1000
--
COMPOUND: CCCCCCC(C(C)NC(C)=O)n1cnc2c(=O)[nH]c(-c3ccccc3OCCC)nc21 (stereo not drawn) [Example 37]
UNIT: nM
IC50: 2000
--
COMPOUND: CCCOc1ccccc1-c1nc2c(ncn2C(C)CCCc2ccccc2)c(=O)[nH]1 (stereo not drawn) [Example 11]
UNIT: nM
IC50: 300
--
COMPOUND: CCCCCCC(C(C)O)n1cnc2c(=O)[nH]c(-c3ccccc3OCCC)nc21 (stereo not drawn) [Example 3]
UNIT: nM
IC50: 6000
--
COMPOUND: CCCOc1ccccc1-c1nc2c(ncn2C(CCCc2ccccc2)C(C)O)c(=O)[nH]1 (stereo not drawn) [Example 5]
UNIT: nM
IC50: 500
